- System: GRK7;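 further: KINOMEscan kinase panel screen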
- Condition summary: concentration: 1 μM, replicates: in singlicate; n = 1
Assay endpoint: %Inh (%)

1) Cc1cccc(-c2nc(Nc3ccc4c(cnn4C)c3)c3ccccc3n2)n1    15
2) CCn1c(-c2ccoc2)nc2cnccc21    93.9
3) O=C(NCCNc1ccnc(Nc2ccc(F)cc2)n1)Nc1ccc2c(c1)OCO2    0
4) Nc1nccc2scc(-c3ccc4c(c3)CCN4C(=O)Cc3ccccc3)c12    0
5) Cc1cc(Nc2nc(-c3cccc(C)n3)nc3ccccc23)ccn1    0
6) Cc1nn2c(=O)cc(N3CCOCC3)nc2n1Cc1cccc(Cl)c1Cl    0
7) COc1cc2ncn(-c3cc(OCc4ccncc4Br)c(C(N)=O)s3)c2cc1OC    4
